Record form. Attribute: log10(Ki). Fill in for each entry.
Target: GABAA2 receptors (α2, β3, γ2 receptor subunits transfected into Sf9 cells) (Homo sapiens, UniProt P18507+P47869)
Sequence (P47869 29-451): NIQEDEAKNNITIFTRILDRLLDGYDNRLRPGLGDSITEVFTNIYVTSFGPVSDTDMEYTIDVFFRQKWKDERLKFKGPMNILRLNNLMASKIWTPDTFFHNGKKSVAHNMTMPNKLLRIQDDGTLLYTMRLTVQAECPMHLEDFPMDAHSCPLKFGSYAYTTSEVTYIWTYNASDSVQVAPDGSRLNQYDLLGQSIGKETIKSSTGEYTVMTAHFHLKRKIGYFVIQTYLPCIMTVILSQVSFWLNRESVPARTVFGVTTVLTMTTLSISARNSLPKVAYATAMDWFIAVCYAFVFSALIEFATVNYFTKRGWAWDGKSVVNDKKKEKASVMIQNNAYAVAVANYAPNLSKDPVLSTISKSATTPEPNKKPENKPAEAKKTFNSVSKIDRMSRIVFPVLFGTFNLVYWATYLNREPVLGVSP
Sequence (P28472 26-473 partner): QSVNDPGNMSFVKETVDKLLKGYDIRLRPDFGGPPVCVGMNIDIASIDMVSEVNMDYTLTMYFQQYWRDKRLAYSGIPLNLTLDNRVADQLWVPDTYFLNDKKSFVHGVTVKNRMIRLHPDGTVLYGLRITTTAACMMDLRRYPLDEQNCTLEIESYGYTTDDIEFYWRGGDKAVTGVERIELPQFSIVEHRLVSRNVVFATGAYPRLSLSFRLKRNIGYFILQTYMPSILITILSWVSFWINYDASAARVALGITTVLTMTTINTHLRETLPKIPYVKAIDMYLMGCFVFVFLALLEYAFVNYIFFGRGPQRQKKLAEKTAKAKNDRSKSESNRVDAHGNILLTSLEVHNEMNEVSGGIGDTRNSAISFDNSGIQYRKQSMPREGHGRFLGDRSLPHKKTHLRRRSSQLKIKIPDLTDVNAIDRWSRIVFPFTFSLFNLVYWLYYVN
Sequence (P18507 40-475): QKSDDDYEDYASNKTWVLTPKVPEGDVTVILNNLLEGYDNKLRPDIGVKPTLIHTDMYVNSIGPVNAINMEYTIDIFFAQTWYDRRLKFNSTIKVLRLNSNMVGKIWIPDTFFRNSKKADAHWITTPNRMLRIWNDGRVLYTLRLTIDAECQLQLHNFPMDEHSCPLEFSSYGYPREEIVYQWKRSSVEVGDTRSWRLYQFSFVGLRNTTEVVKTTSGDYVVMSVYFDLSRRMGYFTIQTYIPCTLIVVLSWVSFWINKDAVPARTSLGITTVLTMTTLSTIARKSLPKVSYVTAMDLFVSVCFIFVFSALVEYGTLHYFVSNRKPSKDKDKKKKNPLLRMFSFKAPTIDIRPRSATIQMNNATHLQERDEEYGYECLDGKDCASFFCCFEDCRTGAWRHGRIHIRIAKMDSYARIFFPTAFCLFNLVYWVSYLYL
Test: GABAA2 Binding Method ([3H]-Flunitrazepam displacement)
Settings: [3H]-Flunitrazepam ~2 nM, α2β3γ2 Sf9 membranes, 1 hr at 4° C.
On a log10 scale: recorded Ki, unit nM.

# compound, log10(Ki)
data = [
    ("CCCN1Cc2nc3c(-c4c(F)cccc4OC)cccc3c(N)c2C1=O [Example 5]", 0.70),
]

Please give log10(Ki) for each item listed below.
1. COc1ccc(OC)c(-c2cccc3c(N)c4c(nc23)CN(Cc2ccc3c(c2)OCO3)C4=O)c1
2. N#Cc1ccc(F)cc1-c1cccc2c(N)c3c(nc12)CN(C1CCC1)C3=O
3. Cc1nn(C)cc1-c1c(F)ccc2c(N)c3c(nc12)CN([C@@H]1CCOC1)C3=O [Example 97]
4. COc1cccc(F)c1-c1cccc2c(N)c3c(nc12)CN(C1CCC1)C3=O [Example 18]
5. COc1ccc(CN2Cc3nc4c(-c5cccc(OC)c5F)cccc4c(N)c3C2=O)cc1
6. CCCN1Cc2nc3c(-c4cccc(OC)c4F)cccc3c(N)c2C1=O
7. COc1ccc(CN2Cc3nc4c(-c5c(F)cccc5OC)cccc4c(N)c3C2=O)cc1 [Example 1]

OUTPUT:
1: 1.78; 2: 0.79; 3: 1.02; 4: 0.21; 5: 0.90; 6: 1.06; 7: 0.99
